Hey, just so you know, these numbers are from patent US20250027068.

Recorded Enzyme Activity Endpoint Assay: Fab′2 by entry
# test.system: pooled human IgG (human IgG1, 2, 3 and 4)
endpoint.name: Enzyme Activity Endpoint Assay: Fab′2 (ng/µL)

protein: PRT-599 (protein) MANQEIRYSEETPSTITSVWTKGVTPPTDFIQNEDVLHAPYIANQGWYDITKTFNGKDDLLCGAATAGNMLHWWFDQNKEQIENYLKKHPEKQKINFNGEQMFDVKEAIDTKDSQTDSALFEYFKDKAFPYLSTKHLGVFPDHVIDMFINGYRLSLTNHGPTPVKRGTKDPRGGIFDAVFTRGDQSKLLTSRHDFKEKTLNEISDLIKQELTEGKALGLSHTYANVRINHVINLWGADFNAEGNLEAIYVTDSDSNASIGMKKYYVGVNSAGKVAISAKEIKGDNIGAQVLGLFTLSTGQDIWNQTNLEHHHHHH
endpoint.result: 930
//
protein: PRT-525 (protein) MITSVWTKGVTPPAKFTQGEDVFHAPYVANQGWYDITKTFNGKDNLLCGAATAGNMLHWWFDQNKEEIEAYLKKHPEKQKIIFNNQELFDLKAVINTKDSQTNSALFNYFKDKAFPNLSARRLGVFPDLVLDMFINGYYLNVYKTQTTDVNRTYQTKDRRGGIFDAVFTRGVQSKLLTERHDLKNKTLKEISDLIKQELTEGKALGLSHTYANVRINHVINLWGADFDSNGNLEAIYVTDSDTNASIGMKKYFVGVNSAGKVAISAKEIKEDNIGAQVLGLFTLSTGQDIWNQTNLEHHHHHH
endpoint.result: 1340
//
protein: PRT-256 (protein) MVTSVWTKGVTPPTNFTYGEDVLHAPYVANQGWYDITKLFNGKDDLLCGAATAGNMLHWWFDQNKEQIENYLKKHPEKQKINFNGEQMFDVKEAIDTKDSQLDSKLFEYFLEKAFPNLSTKHLGVFPDHVIDMFINGYRLSLLNHGPTPVKRGSKDPRGGIFDAVFTRGDQSKLLTNRHDFKEKTLKEISDLIKQELTEGKALGISHTYANVGINHVINLWGADFDAEGNLEAIAVTDSDSNASIGMKKYFVGVNSSGKVAISAKEIEEDNIGAQVLGLFTLSTGQDIWNQTN
endpoint.result: 610
//
protein: PRT-500 (protein) MVTSVWTKGVTPPADFTQGEDVFHAPYVANQGWYDITKAFDGGDDLLCGAATAGNMLHWWFDQNKEYIEAYLKKHPEKQKIMFGDQELLDVRKAINTKGSQKNSELFNYFRDKAFPNLSARRLGVMPDLVLDMFINGYYLNVTKTQTTDVNRTYQEKDKRGGIFDAVFTRGDQSKLLTSRHDLKNKGLKEISDLIKQELTEGKALGLSHTYANVRINHVINLWGADFDSDGNLKAIYVTDSDSNASIGMKKYFVGVNSAGKVAISAKEIKEDNIGAQVLGLFTLSTGQDIWNQTNLEHHHHHH
endpoint.result: 25
//
protein: PRT-583 (protein) MANQEIRYSKAKPKVITSVWTKGVTPPTQFTKNEDVFHAPYLANQGWYDITKTFNGKDDLLCGAATAGNMLHWWFDQNKEQIERYLKKHPEKQKINFNGEQMFDVKEAIDTKDSQTNSKLFNYFKEKAFPYLSTKHLGVFPDHVIDMFINGYRLSLTNHGPTPVKEQNKDPRGGIFDDVFTRGDQSKLLTSRHDFKEKTLKEISDLIKQELKEGKALGLSHTYANVRINHVINLWGADFDAEGNLIAIYVTDSDSNASIGMKKYYVGVNSAGKVAISAKEIEDDNIGAQVLGLFTLSTGKDIWEKTNLEHHHHHH
endpoint.result: 748
//
protein: PRT-580 (protein) MANQEIRYSEETPKTITSVWTKGVTPPTDFIKNEDVFHAPYVANQGWYDITKTFNGKDDLLCGAATAGNMLHWWFDQNKEEIERYLKKHPEKQKINFNGEQMFDVKEAIDTKDSQTNSKLFEYFKDKAFPYLSTKHLGVFPDHVIDMFINGYRLSLTNHGPTPVKRGTKDPRGGIFDAVFTRGDQSKLLTSRHDFKEKTLKEISDLIKQELQEGKALGLSHTYANVRINHVINLWGADFDSEGNLEAIYVTDSDSNASIGMKKYYVGVNSAGKVAISAKEIEDDNIGAQVLGLFTLSTGKDIWEQTNLEHHHHHH
endpoint.result: 566
//
protein: PRT-527 (protein) MANQEIRYSEETPKTITSVWTKGVTPPTDFIKNEDVLHAPYIANQGWYDITKTFNGKDDLLCGAATAGNMLHWWFDQNKEEIENYLKKHPEKQKINFNGEQMFDVKEAIDTKDSQTDSALFEYFKDKAFPNLSTKHLGVMPDLVLDMFINGYYLSLGKHGPTPVKRGTKDPRGGIFDAVFTRGDQSKLLTSRHDFKEKTLNEISDLIKQELTEGKALALSHTYANVRINHVINLWGADFNSEGNLEAIYVTDSDSNASIGMKKYYVGVNSAGKVAISAKEIEGDNIGAQVLGLFTLSTGQDIWEQTNLEHHHHHH
endpoint.result: 0
//
protein: PRT-556 (protein) MANQEIRYSKAKPKVITSVWTKGVTPPTQFTYNEDVFHAPYLPNQGWYDITKTFNGKDDLLCGAATAGNMLHWWFDQNKEQIERYLKEHPEKQKINFNGEQMFDVKEAIDTKDSQTNSKLFNYFKDKAFPYLSTKHLGVFPDHVIDMFINGYRLSLTNHGPTPVKEQNKDPRGGIFDDVFTRGDQSKLLTSRHDFKEKTLKEISDLIKQELKEGKALGLSHTYANVRINHVINLWGADFDAEGNLVAIYVTDSDSNASIGMKKYYVGVNSAGKVAISAKEIEDDNIGAQVLGLFTLSTGKDIWEKTNLEHHHHHH
endpoint.result: 570
